Target: BTK (Homo sapiens)
Sequence (Q06187 whole entry): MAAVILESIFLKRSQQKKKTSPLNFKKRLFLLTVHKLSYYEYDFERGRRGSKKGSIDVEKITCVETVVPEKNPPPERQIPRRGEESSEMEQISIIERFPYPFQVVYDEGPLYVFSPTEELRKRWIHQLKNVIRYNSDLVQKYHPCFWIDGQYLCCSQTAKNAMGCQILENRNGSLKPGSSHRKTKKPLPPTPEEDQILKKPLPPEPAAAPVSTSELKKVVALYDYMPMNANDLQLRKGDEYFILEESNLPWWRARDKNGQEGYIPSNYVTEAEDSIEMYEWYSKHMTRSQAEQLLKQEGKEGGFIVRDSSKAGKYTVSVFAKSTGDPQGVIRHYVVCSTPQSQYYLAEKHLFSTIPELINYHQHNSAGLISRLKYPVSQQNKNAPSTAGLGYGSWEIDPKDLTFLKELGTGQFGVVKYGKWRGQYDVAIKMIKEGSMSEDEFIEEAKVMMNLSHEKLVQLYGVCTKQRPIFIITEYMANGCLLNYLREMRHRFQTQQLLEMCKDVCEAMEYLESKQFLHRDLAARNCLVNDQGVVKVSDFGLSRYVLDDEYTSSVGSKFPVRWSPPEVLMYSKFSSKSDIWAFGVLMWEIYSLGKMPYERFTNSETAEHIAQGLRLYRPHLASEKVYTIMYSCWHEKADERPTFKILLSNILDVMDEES
Assay: BTK degradation in Mino cells, dose-response Western blot
Assay type: cell-based
Set-up: endogenous in cells; host or cells: Mino (ATCC CRL-3000), Ramos (ATCC CRL-1596), K562 (NCI-60)
Conditions: MINO, 24 h, read-out: Dmax (maximal degradation)
Experimental: We evaluated the ability of the compounds to induce degradation of BTK in human cell lines. We incubated Mino cells with the compounds and followed BTK levels after 24 h by Western blot (Figure 2, Supporting Figure 2). […] Figure 2 Efficient BTK degradation in cells. […] (B) Quantification of BTK levels in (A) by normalization to the β-actin house-keeping gene in Mino cells. DC50 and Dmax were calculated by fitting the data to a second-order polynomial using Prism software. […]
resultType: Dmax

| molecule | resultType | result |
| --- | --- | --- |
| Nc1ncnc2c1c(-c1ccc(Oc3ccccc3)cc1)nn2C1CCCN(C(=O)C=CCCCCOCCOCCOCCOCCOc2cccc3c2C(=O)N(C2CCC(=O)NC2=O)C3=O)C1 (stereo not drawn) | Dmax | ~90% |
| N#CC(=CCCCCOCCOCCOCCOCCOc1cccc2c1C(=O)N(C1CCC(=O)NC1=O)C2=O)C(=O)N1CCCC(n2nc(-c3ccc(Oc4ccccc4)cc3)c3c(N)ncnc32)C1 (stereo not drawn) | Dmax | 66% |

Consider the additional molecule presented here.
Which Dmax is listed for CC(C)(C=C(C#N)C(=O)N1CCCC(n2nc(-c3ccc(Oc4ccccc4)cc3)c3c(N)ncnc32)C1)CCCOCCOCCOCCOCCOc1cccc2c1C(=O)N(C1CCC(=O)NC1=O)C2=O (stereo not drawn) ?
~90%

* * *

Target: BTK (Homo sapiens)
Test: Time course of BTK degradation in Ramos and Mino cells
Type: cell-based
Design: endogenous in cells; host or cells: Mino (ATCC CRL-3000), Ramos (ATCC CRL-1596), K562 (NCI-60)
Details: 100 nM PROTAC, Ramos cells (RC-3: Mino cells)
# time to degrade BTK / reach maximum degradation annotations

Worked cases, answers included:
| compound | assaySystem | result |
| --- | --- | --- |
| N#CC(=CCOCCOCCOCCOCCOCCOc1cccc2c1C(=O)N(C1CCC(=O)NC1=O)C2=O)C(=O)N1CCCC(n2nc(-c3ccc(Oc4ccccc4)cc3)c3c(N)ncnc32)C1 (stereo not drawn) | BTK (Homo sapiens) | 6 to 24 h |
| CC(C)(C=C(C#N)C(=O)N1CCCC(n2nc(-c3ccc(Oc4ccccc4)cc3)c3c(N)ncnc32)C1)CCCOCCOCCOCCOCCOc1cccc2c1C(=O)N(C1CCC(=O)NC1=O)C2=O (stereo not drawn) | BTK (Homo sapiens) | 2 to 4 h |

// switching to the query compound
Which time to degrade BTK / reach maximum degradation is reported with BTK (Homo sapiens) for this entry: Nc1ncnc2c1c(-c1ccc(Oc3ccccc3)cc1)nn2C1CCCN(C(=O)C=CCOCCOCCOCCOCCOCCOc2cccc3c2C(=O)N(C2CCC(=O)NC2=O)C3=O)C1 (stereo not drawn) ?
2 to 4 h

* * *

Tested on: C481S BTK
Assay: In vitro kinase activity assay, C481S BTK (Nanosyn)
Conditions: 2 h preincubation
resultType: fold reduction in potency, C481S vs wild-type BTK

Some solved entries appear below for comparison.
| compound | result |
| --- | --- |
| N#CC(=CCCCCOCCOCCOCCOCCOc1cccc2c1C(=O)N(C1CCC(=O)NC1=O)C2=O)C(=O)N1CCCC(n2nc(-c3ccc(Oc4ccccc4)cc3)c3c(N)ncnc32)C1 (stereo not shown) | 68 fold |
| Nc1ncnc2c1c(-c1ccc(Oc3ccccc3)cc1)nn2C1CCCN(C(=O)CCCCCCOCCOCCOCCOCCOc2cccc3c2C(=O)N(C2CCC(=O)NC2=O)C3=O)C1 (stereo not shown) | < 2 fold |

Now consider the entry below.
What measured fold reduction in potency, C481S vs wild-type BTK is associated with CC(C)(C=C(C#N)C(=O)N1CCCC(n2nc(-c3ccc(Oc4ccccc4)cc3)c3c(N)ncnc32)C1)CCCOCCOCCOCCOCCOc1cccc2c1C(=O)N(C1CCC(=O)NC1=O)C2=O (stereo not shown) on C481S BTK?
> 1000 fold
